# Test system: LOUCY (T-Lymphoblastic Leukemia)
# protocol description: combination Emax (second highest fraction inhibited in the dose matrix, 72 h); higher = more inhibition; extreme values may be limits of the assay
Below, each entry is listed alongside its reported combination Emax.
parameter measured: combination Emax

CN(CCO)CC[C@H](CSc1ccccc1)Nc1ccc(S(=O)(=O)NC(=O)c2ccc(N3CCC([C@@H](O)c4ccccc4-c4ccc(Cl)cc4)CC3)cc2)cc1S(=O)(=O)C(F)(F)F [AZD4320] + Cc1cc2ncnn2cc1Nc1ncc2c(n1)n(C1CCOCC1)c(=O)n2C [AZD7648] (first compound max 1 µM, 7x7, partner max 10 µM)	1
O=C(c1cc(Cc2n[nH]c(=O)c3ccccc23)ccc1F)N1CCN(C(=O)C2CC2)CC1 [Olaparib] + COc1nnc2ccc(N3CCC(c4ccc(OCCN5CCN(C)C(=O)[C@H]5C)cc4)CC3)nn12 [AZD5153] (first compound max 10 µM, 7x7, partner max 1 µM)	0.749
N#Cc1cnc(Nc2cc(NC[C@H]3CNCCO3)c(C(F)(F)F)cn2)cn1 [SRA737] + Nc1ccn([C@@H]2O[C@H](CO)[C@@H](O)C2(F)F)c(=O)n1 [Gemcitabine] (first compound max 10 µM, 7x7, partner max 0.3 µM)	0.96
Cc1c2c(nn1C)CSCc1cc(n(C)n1)CSc1cc(c3ccccc3c1)OCCCc1c(C(=O)O)n(C)c3c-2c(Cl)ccc13 [AZD5991] + CCN(CCO)CCCOc1ccc2c(Nc3cc(CC(=O)Nc4cccc(F)c4)[nH]n3)ncnc2c1 [AZD2811] (first compound max 1 µM, 7x7, partner max 1 µM)	0.983
CC(=O)c1c(C)c2cnc(Nc3ccc(N4CCNCC4)cn3)nc2n(C2CCCC2)c1=O [Palbociclib] + Cc1c2c(nn1C)CSCc1cc(n(C)n1)CSc1cc(c3ccccc3c1)OCCCc1c(C(=O)O)n(C)c3c-2c(Cl)ccc13 [AZD5991] (first compound max 10 µM, 7x7, partner max 1 µM)	0.553
CCc1c2c(nc3ccc(O)cc13)-c1cc3c(c(=O)n1C2)COC(=O)[C@]3(O)CC [SN-38] + O=C(c1cc(Cc2n[nH]c(=O)c3ccccc23)ccc1F)N1CCN(C(=O)C2CC2)CC1 [Olaparib] (first compound max 0.3 µM, 7x7, partner max 10 µM)	0.764
COc1cccc(OCCCN)c1-c1cc(Nc2cnc(C#N)cn2)n[nH]1 [Prexasertib] + CCc1c2c(nc3ccc(O)cc13)-c1cc3c(c(=O)n1C2)COC(=O)[C@]3(O)CC [SN-38] (first compound max 1 µM, 7x7, partner max 0.3 µM)	1

---

# Tested on: NCI-H1155 (Non-Small Cell Lung Carcinoma)
# protocol description: combination Emax (second highest fraction inhibited in the dose matrix, 72 h); higher = more inhibition; extreme values may be limits of the assay
combination Emax vs 0.8: at or above is class 1, below is class 0.

COc1cccc(OCCCN)c1-c1cc(Nc2cnc(C#N)cn2)n[nH]1 [Prexasertib] + CCc1c2c(nc3ccc(O)cc13)-c1cc3c(c(=O)n1C2)COC(=O)[C@]3(O)CC [SN-38] (first compound max 1 µM, 7x7, partner max 0.3 µM)	class 1
CN(CCO)CC[C@H](CSc1ccccc1)Nc1ccc(S(=O)(=O)NC(=O)c2ccc(N3CCC([C@@H](O)c4ccccc4-c4ccc(Cl)cc4)CC3)cc2)cc1S(=O)(=O)C(F)(F)F [AZD4320] + C[C@@H]1COCCN1C2=NC(=NC(=C2)C3(CC3)[S@](=N)(=O)C)C4=C5C=CNC5=NC=C4 [AZD6738] (first compound max 1 µM, 7x7, partner max 10 µM)	class 1
Cc1c2c(nn1C)CSCc1cc(n(C)n1)CSc1cc(c3ccccc3c1)OCCCc1c(C(=O)O)n(C)c3c-2c(Cl)ccc13 [AZD5991] + Cc1cc2ncnn2cc1Nc1ncc2c(n1)n(C1CCOCC1)c(=O)n2C [AZD7648] (first compound max 1 µM, 7x7, partner max 10 µM)	class 0
CN(CCO)CC[C@H](CSc1ccccc1)Nc1ccc(S(=O)(=O)NC(=O)c2ccc(N3CCC([C@@H](O)c4ccccc4-c4ccc(Cl)cc4)CC3)cc2)cc1S(=O)(=O)C(F)(F)F [AZD4320] + C[C@@H](Nc1cc(F)cc(F)c1)c1cc(C(=O)N(C)C)cc2c(=O)cc(N3CCOCC3)oc12 [AZD8186] (first compound max 1 µM, 7x7, partner max 3 µM)	class 1
CC1(C)CCC(CN2CCN(c3ccc(C(=O)NS(=O)(=O)c4ccc(NCC5CCOCC5)c([N+](=O)[O-])c4)c(Oc4cnc5[nH]ccc5c4)c3)CC2)=C(c2ccc(Cl)cc2)C1 [Venetoclax] + Cn1cnc2c(F)c(Nc3ccc(Br)cc3Cl)c(C(=O)NOCCO)cc21 [Selumetinib] (first compound max 1 µM, 7x7, partner max 3 µM)	class 0
COc1nnc2ccc(N3CCC(c4ccc(OCCN5CCN(C)C(=O)[C@H]5C)cc4)CC3)nn12 [AZD5153] + CC1(C)CCC(CN2CCN(c3ccc(C(=O)NS(=O)(=O)c4ccc(NCC5CCOCC5)c([N+](=O)[O-])c4)c(Oc4cnc5[nH]ccc5c4)c3)CC2)=C(c2ccc(Cl)cc2)C1 [Venetoclax] (first compound max 1 µM, 7x7, partner max 1 µM)	class 0
CN(CCO)CC[C@H](CSc1ccccc1)Nc1ccc(S(=O)(=O)NC(=O)c2ccc(N3CCC([C@@H](O)c4ccccc4-c4ccc(Cl)cc4)CC3)cc2)cc1S(=O)(=O)C(F)(F)F [AZD4320] + Cn1cnc2c(F)c(Nc3ccc(Br)cc3Cl)c(C(=O)NOCCO)cc21 [Selumetinib] (first compound max 1 µM, 7x7, partner max 3 µM)	class 1
C[C@@H](c1ccc2nccn2c1)n1nnc2ncc(-c3cnn(C)c3)nc21 [Savolitinib] + CC1(C)CCC(CN2CCN(c3ccc(C(=O)NS(=O)(=O)c4ccc(NCC5CCOCC5)c([N+](=O)[O-])c4)c(Oc4cnc5[nH]ccc5c4)c3)CC2)=C(c2ccc(Cl)cc2)C1 [Venetoclax] (first compound max 1 µM, 7x7, partner max 1 µM)	class 0
CC(=O)c1c(C)c2cnc(Nc3ccc(N4CCNCC4)cn3)nc2n(C2CCCC2)c1=O [Palbociclib] + Cc1c2c(nn1C)CSCc1cc(n(C)n1)CSc1cc(c3ccccc3c1)OCCCc1c(C(=O)O)n(C)c3c-2c(Cl)ccc13 [AZD5991] (first compound max 10 µM, 7x7, partner max 1 µM)	class 0
Cc1c2c(nn1C)CSCc1cc(n(C)n1)CSc1cc(c3ccccc3c1)OCCCc1c(C(=O)O)n(C)c3c-2c(Cl)ccc13 [AZD5991] + CCN(CCO)CCCOc1ccc2c(Nc3cc(CC(=O)Nc4cccc(F)c4)[nH]n3)ncnc2c1 [AZD2811] (first compound max 1 µM, 7x7, partner max 1 µM)	class 1
NC1(C(=O)N[C@@H](CCO)c2ccc(Cl)cc2)CCN(c2ncnc3[nH]ccc23)CC1 [Capivasertib] + Cn1cnc2c(F)c(Nc3ccc(Br)cc3Cl)c(C(=O)NOCCO)cc21 [Selumetinib] (first compound max 10 µM, 7x7, partner max 10 µM)	class 0

---

# Test system: OVTOKO (Ovarian Carcinoma);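 also: after 72 h of two-drug dosing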
# protocol description: Bliss excess, mean over the matrix (fraction); higher = more synergy
parameter measured: Bliss excess

CC(=O)c1c(C)c2cnc(Nc3ccc(N4CCNCC4)cn3)nc2n(C2CCCC2)c1=O [Palbociclib] + Cc1c2c(nn1C)CSCc1cc(n(C)n1)CSc1cc(c3ccccc3c1)OCCCc1c(C(=O)O)n(C)c3c-2c(Cl)ccc13 [AZD5991] (first compound max 10 µM, 7x7, partner max 1 µM)	-0.0315
Cc1c2c(nn1C)CSCc1cc(n(C)n1)CSc1cc(c3ccccc3c1)OCCCc1c(C(=O)O)n(C)c3c-2c(Cl)ccc13 [AZD5991] + Cn1cnc2c(F)c(Nc3ccc(Br)cc3Cl)c(C(=O)NOCCO)cc21 [Selumetinib] (first compound max 1 µM, 7x7, partner max 3 µM)	-0.039
CC(=O)c1c(C)c2cnc(Nc3ccc(N4CCNCC4)cn3)nc2n(C2CCCC2)c1=O [Palbociclib] + Cn1cnc2c(F)c(Nc3ccc(Br)cc3Cl)c(C(=O)NOCCO)cc21 [Selumetinib] (first compound max 10 µM, 7x7, partner max 10 µM)	-0.0503
NC1(C(=O)N[C@@H](CCO)c2ccc(Cl)cc2)CCN(c2ncnc3[nH]ccc23)CC1 [Capivasertib] + CCN(CCO)CCCOc1ccc2c(Nc3cc(CC(=O)Nc4cccc(F)c4)[nH]n3)ncnc2c1 [AZD2811] (first compound max 10 µM, 7x7, partner max 1 µM)	-0.0109

---

Consider the following compounds and their measured combination Emax readings.
# System: NCI-H196 (Small Cell Lung Carcinoma)
# protocol description: combination Emax (second highest fraction inhibited in the dose matrix, 72 h); higher = more inhibition; extreme values may be limits of the assay
parameter measured: combination Emax

COc1cccc(OCCCN)c1-c1cc(Nc2cnc(C#N)cn2)n[nH]1 [Prexasertib] + CN(C)CCCOc1ccc(-c2ccc3ncc4c(c3c2)n(C2CCOCC2)c(=O)n4C)cn1 [AZD0156] (first compound max 1 µM, 7x7, partner max 1 µM)	0.606
CN(C)CCCOc1ccc(-c2ccc3ncc4c(c3c2)n(C2CCOCC2)c(=O)n4C)cn1 [AZD0156] + C=CCn1c(=O)c2cnc(Nc3ccc(N4CCN(C)CC4)cc3)nc2n1-c1cccc(C(C)(C)O)n1 [AZD1775] (first compound max 1 µM, partner max 1 µM)	0.478
CN(CCO)CC[C@H](CSc1ccccc1)Nc1ccc(S(=O)(=O)NC(=O)c2ccc(N3CCC([C@@H](O)c4ccccc4-c4ccc(Cl)cc4)CC3)cc2)cc1S(=O)(=O)C(F)(F)F [AZD4320] + CCN(CCO)CCCOc1ccc2c(Nc3cc(CC(=O)Nc4cccc(F)c4)[nH]n3)ncnc2c1 [AZD2811] (first compound max 1 µM, 7x7, partner max 1 µM)	0.055
CN(CCO)CC[C@H](CSc1ccccc1)Nc1ccc(S(=O)(=O)NC(=O)c2ccc(N3CCC([C@@H](O)c4ccccc4-c4ccc(Cl)cc4)CC3)cc2)cc1S(=O)(=O)C(F)(F)F [AZD4320] + C1CN(CCC1(C(=O)N[C@@H](CCO)C2=CC=C(C=C2)Cl)N)C3=NC=NC4=C3C=CN4 [Capivasertib] (first compound max 1 µM, 7x7, partner max 3 µM)	0.175
COc1nnc2ccc(N3CCC(c4ccc(OCCN5CCN(C)C(=O)[C@H]5C)cc4)CC3)nn12 [AZD5153] + C=CCn1c(=O)c2cnc(Nc3ccc(N4CCN(C)CC4)cc3)nc2n1-c1cccc(C(C)(C)O)n1 [AZD1775] (first compound max 1 µM, partner max 1 µM)	0.473
CC1(C)CCC(CN2CCN(c3ccc(C(=O)NS(=O)(=O)c4ccc(NCC5CCOCC5)c([N+](=O)[O-])c4)c(Oc4cnc5[nH]ccc5c4)c3)CC2)=C(c2ccc(Cl)cc2)C1 [Venetoclax] + CN(C)CCCOc1ccc(-c2ccc3ncc4c(c3c2)n(C2CCOCC2)c(=O)n4C)cn1 [AZD0156] (first compound max 1 µM, 7x7, partner max 1 µM)	0.113
Cc1cc2ncnn2cc1Nc1ncc2c(n1)n(C1CCOCC1)c(=O)n2C [AZD7648] + C=CCn1c(=O)c2cnc(Nc3ccc(N4CCN(C)CC4)cc3)nc2n1-c1cccc(C(C)(C)O)n1 [AZD1775] (first compound max 10 µM, partner max 1 µM)	0.479
C[C@@H](c1ccc2nccn2c1)n1nnc2ncc(-c3cnn(C)c3)nc21 [Savolitinib] + Cc1c2c(nn1C)CSCc1cc(n(C)n1)CSc1cc(c3ccccc3c1)OCCCc1c(C(=O)O)n(C)c3c-2c(Cl)ccc13 [AZD5991] (first compound max 1 µM, 7x7, partner max 1 µM)	0.173
Cc1c2c(nn1C)CSCc1cc(n(C)n1)CSc1cc(c3ccccc3c1)OCCCc1c(C(=O)O)n(C)c3c-2c(Cl)ccc13 [AZD5991] + CCN(CCO)CCCOc1ccc2c(Nc3cc(CC(=O)Nc4cccc(F)c4)[nH]n3)ncnc2c1 [AZD2811] (first compound max 1 µM, 7x7, partner max 1 µM)	0.222
COc1nnc2ccc(N3CCC(c4ccc(OCCN5CCN(C)C(=O)[C@H]5C)cc4)CC3)nn12 [AZD5153] + CCN(CCO)CCCOc1ccc2c(Nc3cc(CC(=O)Nc4cccc(F)c4)[nH]n3)ncnc2c1 [AZD2811] (first compound max 1 µM, 7x7, partner max 1 µM)	0.314
CCN(CCO)CCCOc1ccc2c(Nc3cc(CC(=O)Nc4cccc(F)c4)[nH]n3)ncnc2c1 [AZD2811] + C[C@@H]1COCCN1C2=NC(=NC(=C2)C3(CC3)[S@](=N)(=O)C)C4=C5C=CNC5=NC=C4 [AZD6738] (first compound max 1 µM, 7x7, partner max 10 µM)	0.276
C=CCn1c(=O)c2cnc(Nc3ccc(N4CCN(C)CC4)cc3)nc2n1-c1cccc(C(C)(C)O)n1 [AZD1775] + O=C(c1cc(Cc2n[nH]c(=O)c3ccccc23)ccc1F)N1CCN(C(=O)C2CC2)CC1 [Olaparib] (first compound max 1 µM, partner max 10 µM)	0.536
COc1cc2ncnc(Nc3ccc(F)c(Cl)c3)c2cc1OCCCN1CCOCC1 [Gefitinib] + CC(C)n1c(=O)n(C)c2cnc3cc(F)c(-c4ccc(OCCCN5CCCCC5)nc4)cc3c21 [AZD1390] (first compound max 10 µM, 7x7, partner max 0.3 µM)	0.0162
